Assign ΔTm to each entry below.
System: Calf thymus DNA
Assay: Binding affinity to calf thymus DNA assessed as DNA intercalation by measuring change in melting temperature by thermal denaturation assay
Type: nucleic-acid assay
Conditions: Bos taurus
One number for each entry, in °C.

Worked examples, 5 compounds total:
In [3]: df
Out[3]:
                            smiles_notation  measurement_kind  assay_value
0  CN(C)CCN1C(=O)c2cccc3c(NCCNCCNCCN)ccc(c23)C1=O               ΔTm         11.8
1  O=C1c2cccc3cccc(c23)C(=O)N1c1nc(-c2cc3cc(Cl)ccc3oc2=O)cs1               ΔTm          0.1
2  O=C1c2cccc3cccc(c23)C(=O)N1c1nc(-c2cc3cc(Br)ccc3oc2=O)cs1               ΔTm          0.1
3  O=C1c2ccc3c4c(ccc(c24)C(=O)N1c1nc(-c2cc4cc(Cl)cc(Cl)c4oc2=O)cs1)C(=O)N(c1nc(-c2cc4cc(Cl)cc(Cl)c4oc2=O)cs1)C3=O               ΔTm          0.1
4  O=C1c2cccc3cccc(c23)C(=O)N1c1nc(-c2cc3cc(Cl)cc(Cl)c3oc2=O)cs1               ΔTm          3.8

Below are 3 compounds. Give each one its ΔTm.
1. O=C1c2ccc3c4c(ccc(c24)C(=O)N1c1nc(-c2cc4cc(Br)cc(Br)c4oc2=O)cs1)C(=O)N(c1nc(-c2cc4cc(Br)cc(Br)c4oc2=O)cs1)C3=O
2. CN(C)CCN1C(=O)c2cccc3c2c(cc2nccnc23)C1=O
3. COc1cccc2cc(-c3csc(N4C(=O)c5cccc6cccc(c56)C4=O)n3)c(=O)oc12

[0.1, 3.9, 0.1]

====

System: A549
Experiment: Cytotoxicity against human A549 cells assessed as cell growth inhibition by MTT assay
Format: functional, cell-based
Give pIC50 for every item shown.
Give bare numbers, as −log10 of the molar value.

In [3]: df
Out[3]:
                            smiles_notation  assay_value
0  COc1ccc2c(CC(=O)NCCN3C(=O)c4cccc5c(N(C)C)ccc(c45)C3=O)c(C)n(C(=O)c3ccc(Cl)cc3)c2c1         4.86

Now consider a different compound.
Recorded pIC50 of `COc1ccc2c(CC(=O)OCCN3C(=O)c4cccc5c(N(C)C)ccc(c45)C3=O)c(C)n(C(=O)c3ccc(Cl)cc3)c2c1` , please. 4.86

====

Test system: Calf thymus DNA
Test: Binding affinity to calf thymus DNA assessed as DNA intercalation by measuring binding constant by fluorescence spectroscopic assay
Type: nucleic-acid assay
Settings: Bos taurus
measurement.kind: Kb

Example entries begin here.
In [3]: df
Out[3]:
                            smiles_notation      measured_on  measurement_kind  assay_value
0  CN(C)CCN1C(=O)c2cccc3c(N4CCC[C@@H]4CO)ccc(c23)C1=O  Calf thymus DNA                Kb   1.8 10^4/M
1  CN(C)CCN1C(=O)c2cccc3c(N4CCC[C@H]4CO)ccc(c23)C1=O  Calf thymus DNA                Kb   1.8 10^4/M
2  CN(C)CCN1C(=O)c2cccc3c(N4CC[C@H](O)C4)ccc(c23)C1=O  Calf thymus DNA                Kb   1.8 10^4/M

Look up Kb for this compound: `CN(C)CCN1C(=O)c2cccc3c(N4CC[C@@H](O)C4)ccc(c23)C1=O` 1.8 10^4/M

Each recorded value in this set is attributed to ChEMBL document CHEMBL5244223.
